Reference source: patent US20200308290A1

target: T1, cynomolgous monkey CD25 (cynomolgous monkey); test: SPR (BIAcore), cynomolgous CD25
T1 construct: also called cmCD25; cm
In this section we review reported pKd values for a set of binders.
Remember, pKd is on a log scale: it is -log10 of the molar concentration.

Worked cases, answers included:
Lookup: Note pKd for the binder shown: Variant C47 (antibody, V domains shown) VH: QVQLVQSGAEVKKPGSSVKVSCKASGYTFTSYRMHWVRQAPGQGLEWMGYIRPKKGYTEYNQKFKDKATITADESTNTAYMELSSLRSEDTAVYYCARGGGVFDYWGQGTLVTVSS VL: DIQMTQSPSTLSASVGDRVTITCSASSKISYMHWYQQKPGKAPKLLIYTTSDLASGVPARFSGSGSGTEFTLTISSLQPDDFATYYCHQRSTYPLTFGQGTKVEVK
Found: 10.00

Lookup: Output pKd of Variant C44 (antibody, V domains shown) VH: QVQLVQSGAEVKKPGSSVKVSCKASGYTFTSYRMHWVRQAPGQGLEWMGYISPKKGYTEYNQKFKDKATITADESTNTAYMELSSLRSEDTAVYYCARGGGVFDYWGQGTLVTVSS VL: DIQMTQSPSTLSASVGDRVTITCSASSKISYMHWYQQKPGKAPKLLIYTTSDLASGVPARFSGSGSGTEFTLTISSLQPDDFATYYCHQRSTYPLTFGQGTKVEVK
Found: 10.38

Lookup: Please report pKd for the following binder: Variant C61 (antibody, V domains shown) VH: QVQLVQSGAEVKKPGSSVKVSCKASGYTFTSYRMHWVRQAPGQGLEWMGYISPNSGRTEYNQKFKDKATITADESTNTAYMELSSLRSEDTAVYYCARGGGVFDYWGQGTLVTVSS VL: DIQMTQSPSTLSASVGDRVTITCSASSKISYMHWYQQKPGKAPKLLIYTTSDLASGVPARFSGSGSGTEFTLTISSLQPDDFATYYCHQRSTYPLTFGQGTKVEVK
Found: 10.26

Lookup: Specify reported pKd for the binder shown: Variant C50 (antibody, V domains shown) VH: QVQLVQSGAEVKKPGSSVKVSCKASGYTFTSYRMHWVRQAPGQGLEWMGYISPNSGYTEYNQKFKDKATITADESTNTAYMELSSLRSEDTAVYYCARGGGVFDYWGQGTLVTVSS VL: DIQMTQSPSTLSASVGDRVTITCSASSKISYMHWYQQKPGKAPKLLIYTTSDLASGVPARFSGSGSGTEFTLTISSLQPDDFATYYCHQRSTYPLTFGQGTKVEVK
Found: 10.59

***
Lookup: Please give the documented pKd of Variant C59 (antibody, V domains shown) VH: QVQLVQSGAEVKKPGSSVKVSCKASGYTFTSYRMHWVRQAPGQGLEWMGYIRPKSGRTEYNQKFKDKATITADESTNTAYMELSSLRSEDTAVYYCARGGGVFDYWGQGTLVTVSS VL: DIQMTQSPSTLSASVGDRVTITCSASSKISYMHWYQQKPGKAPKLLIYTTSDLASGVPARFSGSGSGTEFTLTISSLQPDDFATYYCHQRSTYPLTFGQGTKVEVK
Found: 10.30
